Molecular target: human SSTR4 (Homo sapiens, UniProt P31391)
Sequence (P31391 whole entry): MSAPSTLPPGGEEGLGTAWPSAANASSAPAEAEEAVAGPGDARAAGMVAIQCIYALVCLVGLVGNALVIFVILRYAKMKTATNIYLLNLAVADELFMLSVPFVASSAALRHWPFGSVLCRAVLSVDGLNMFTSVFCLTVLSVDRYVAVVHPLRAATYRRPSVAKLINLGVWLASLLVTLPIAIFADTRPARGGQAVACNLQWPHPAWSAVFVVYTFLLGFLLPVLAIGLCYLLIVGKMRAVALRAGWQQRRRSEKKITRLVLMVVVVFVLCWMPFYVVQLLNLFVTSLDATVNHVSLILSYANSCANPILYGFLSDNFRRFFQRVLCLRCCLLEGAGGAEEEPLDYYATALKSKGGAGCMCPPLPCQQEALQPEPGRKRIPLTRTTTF
Experiment: Evaluation of agonist activities using human SSTR4-stably expressing cells (aequorin luminescence)
Settings: luminescence signal; 1 μmol/L somatostatin taken as 100%
Procedure: Evaluation of Agonist Activities Using Cells that stably expressing human-derived SSTR4 (human SSTR4-stably expressing cells) (1) Human SSTR4-Stably Expressing Cells Human SSTR4-stably expressing cells were prepared, and cultured. Specifically, HEK293 cells, human kidney-derived cells, were used as host cells. […] For detection of luminescence signal due to SSTR4-stimulation, FDSS7000 (manufactured by Hamamatsu Photonics K.K.) was used. […]
measured.parameter: EC50 (nM)
The reply should contain only the number, in nM.

// EC50 value for CCN1CCC[C@H](C(=O)NC(C)(C)c2ccccc2Cl)C1 [Example 110] : 2.8

// EC50 value for CC(C)N1CCCC(C(=O)NC(C)(C)c2cccc3ccccc23)C1 (centres unmarked) [Example 119] : 3.5

Could you now look at the following compound, please?
// EC50 value for CN1CCC[C@H](C(=O)NC(C)(C)c2cc(Cl)cc(Cl)c2)C1 [Example 18] : 2
